melting point for assorted molecules

COC(=O)Nc1cccc2c1C(=O)c1c-2n[nH]c1-c1ccc(OC)cc1    > 300 °C
COc1ccc(-c2[nH]nc3c2C(=O)c2c(NC(N)=O)cccc2-3)cc1    267 to 269 °C
COc1ccc(-c2[nH]nc3c2C(=O)c2c(NC(=O)NN4CCOCC4)cccc2-3)cc1    290 to 291 °C

Now turn to the next molecule.
In: Give reported melting point value for COc1ccc(-c2[nH]nc3c2C(=O)c2c(NC(=O)CN4CCC(CN)CC4)cccc2-3)cc1
Out: > 300 °C
